Test system: P12-Ichikawa
Experiment: cell viability relative to DMSO control; higher = less cytotoxic
Details: HPLM + 10% dialyzed FBS; 48 h; 0.569 µM
ASSAY METRIC: cell viability (%)

COMPOUND	TEST RESULT
Cc1cccc(C#Cc2ccccc2)n1	112
CO[C@H]1C[C@@H]2CC[C@@H](C)[C@@](O)(O2)C(=O)C(=O)N2CCCC[C@H]2C(=O)O[C@H]([C@H](C)C[C@@H]2CC[C@@H](OC(=O)C(C)(CO)CO)[C@H](OC)C2)CC(=O)[C@H](C)/C=C(\C)[C@@H](O)[C@@H](OC)C(=O)[C@H](C)C[C@H](C)/C=C/C=C/C=C/1C	100
Cc1nccn1CC1CCc2c(c3ccccc3n2C)C1=O (configuration not stated)	111
C[C@@]12O[C@@H](C[C@]1(O)CO)n1c3ccccc3c3c4c(c5c6ccccc6n2c5c31)CNC4=O	81.3
N=C(N)NC(=O)c1nc(Cl)c(N)nc1N	130
CCC(=O)OCC(=O)[C@@]1(OC(=O)CC)[C@@H](C)C[C@H]2[C@@H]3CCC4=CC(=O)C=C[C@]4(C)[C@@]3(F)[C@@H](O)C[C@@]21C	80.1
O=C(CO)N1CCC(c2n[nH]c(-c3ccc(Cl)cc3)c2-c2ccncn2)CC1	105
